system: HepG2; experiment: GSK_TCMDC: Percent inhibition of human HepG2 cell line. Test compounds present at 10uM.; assay type: functional
I'd appreciate it if you marked entries Condition met when Inhibition is lower than 20% and Condition not met when it is not.

O=C(O)C(F)(F)F.c1cc(CNCC2CCCO2)cc(-c2cccc(-c3nc4ccccc4[nH]3)c2)c1 (configuration not stated)
Condition met

// query Does the reported Inhibition of O=C(/C=C/c1ccc(Cl)cc1)NCCCCCN1CCC(c2c[nH]c3ccccc23)CC1 stay below 20%?
// result Condition not met

// query Does the reported Inhibition of Cn1cnc(CCNC(=O)c2cccc(-c3csc(-c4nc5ccccc5[nH]4)c3)c2)c1 stay below 20%?
// result Condition not met

* * *

Recorded Inhibition for the following compounds
tested on: HepG2; assay: GSK_TCMDC: Percent inhibition of human HepG2 cell line. Test compounds present at 10uM.; format: functional
Please state the figure in %; there is no need to write the unit.

Worked cases, answers included:
CC(C)CCCC(C)(C)NC[C@@H](O)[C@H](Cc1ccccc1)NC(=O)c1cc(NC(C)C)cc(N2CCCCS2(=O)=O)c1F.O=CO
11
CN1CCCc2ccc(NC(=O)c3ccc(-c4cc(C(F)(F)F)nn4C)s3)cc2C1.O=C(O)C(F)(F)F
16
C[C@@H](Oc1cc(-n2cnc3ccc(NC(=O)CCN4CCCCC4)cc32)sc1C(N)=O)c1ccccc1Cl
36

// query Tell me the measured Inhibition of CC(C)NCc1ccc(-c2ccc(NC(=O)c3cccc(Cl)c3)cc2)cc1.O=C(O)C(F)(F)F , please.
// result 36

* * *

Recorded Inhibition for the following compounds
test system: HepG2; experiment: GSK_TCMDC: Percent inhibition of human HepG2 cell line. Test compounds present at 10uM.; assay type: functional
Please state the figure in %; there is no need to write the unit.

Worked cases, answers included:
CC(C)CC(C)NC(=O)C1Cc2c([nH]c3ccc(F)cc23)C2(CCN(Cc3ccccc3)CC2)N1 (stereo not drawn)
18
COc1cccc(CN(C(=O)Nc2ccccc2F)[C@H]2C[C@H]3C(=O)Nc4cc(F)ccc4C(=O)N3C2)c1
0
O=C(Nc1ccc(Oc2ccccc2)cc1)N[C@H]1CCN(Cc2ccc(OCCCN3CCCCC3)cc2)C1
13

// query Tell me the measured Inhibition of CCN1CCN(c2cc(C)c3cc(NC(=O)c4cncc(Br)c4)ccc3n2)CC1 , please.
// result 3

// query Tell me the measured Inhibition of CCOC(=O)[C@H](Cc1cccc2ccccc12)NC(=O)[C@H](CCC(=O)OC(C)(C)C)NC(=O)c1ccc(N(C)Cc2cnc3nc(N)nc(N)c3n2)cc1 , please.
// result 66

// query Tell me the measured Inhibition of Fc1ccc2[nH]c(-c3ccc(-c4ccc(CNCCN5CCNCC5)cc4)cc3)nc2c1.O=C(O)C(F)(F)F , please.
// result 94

// query Tell me the measured Inhibition of O=C(Nc1cccc(Cl)c1Cl)N[C@H]1CCN(CCCCCNC(=O)C2CC2c2ccc(Cl)c(Cl)c2)C1 (stereo partly drawn) , please.
// result 40

// query Tell me the measured Inhibition of COc1ccccc1CCNc1nc(C)cc(NCCC(=O)NCCOc2ccccc2)n1.O=C(O)C(F)(F)F , please.
// result 11

* * *

Recorded Inhibition for the following compounds
tested on: Plasmodium falciparum; assay: GSK_TCMDC: Inhibition of Plasmodium falciparum Dd2 in whole red blood cells, using parasite LDH activity as an index of growth. Test compounds present at 2uM; type: functional
Could you write the number and then its unit?

// query Tell me the measured Inhibition of CC1CCN(Cc2c(O)ccc3c(O)c(-c4nc5ccccc5s4)c(=N)oc23)CC1 , please.
// result 99%
